Where do these numbers come from? They come from patent US10604512B2.

System: SW480 colon cancer cells
Assay: Cell viability assay (CellTiter-Blue) in SW480 colon cancer cells
Format: cell-based
Conditions: Homo sapiens, 96 h, four days, CellTiter-Blue
pEC50: −log10 of the molar value.
The following compounds are listed with their measured pEC50 values.

Recorded results for 6 compounds are shown here.
1) CC(C)CC(=O)Nc1cncc(-c2ccc3[nH]nc(-c4cc5c(-c6ccc(F)cc6)cccc5[nH]4)c3c2)c1; < 5.00
2) O=C(Nc1cncc(-c2ccc3[nH]nc(-c4cc5ccccc5[nH]4)c3c2)c1)c1ccccc1; < 5.00
3) Fc1ccc(-c2cccc3[nH]c(-c4n[nH]c5ccc(-c6cncc(CN7CCCC7)c6)cc45)cc23)cc1; < 5.00
4) O=C(Nc1cncc(-c2ccc3[nH]nc(-c4cc5ccccc5[nH]4)c3c2)c1)C1CCCCC1; < 5.00
5) CC(C)(C)C(=O)Nc1cncc(-c2ccc3[nH]nc(-c4cc5c(-c6ccc(F)cc6)cccc5[nH]4)c3c2)c1; < 5.00
6) c1ccc(-c2cccc3[nH]c(-c4n[nH]c5ccc(-c6ccncc6)cc45)cc23)nc1; < 5.00

API: the following record is the query input.
Asked: Fill in pEC50 for record `c1ccc(-c2cccc3[nH]c(-c4n[nH]c5ccc(-c6cncc(CN7CCCC7)c6)cc45)cc23)nc1`
Given back: 5.55

###

System: SW480 colon cancer cells
Assay: Cell viability assay (CellTiter-Blue) in SW480 colon cancer cells
Assay type: cell-based
Settings: Homo sapiens, 96 h, four days, CellTiter-Blue
MEASUREMENT LABEL: EC50 (µM)

I: CS(=O)(=O)NCc1cc(F)cc(-c2cccc3[nH]c(-c4n[nH]c5ccc(-c6cncc(CN7CCC(F)(F)C7)c6)cc45)cc23)c1
II: c1cncc(-c2cccc3[nH]c(-c4n[nH]c5ccc(-c6cncnc6)cc45)cc23)c1
Asked: Hey, which is lower on measured EC50, I or II ? Write down the label of the entry you select.
Given back: I
